Measured pKd values are reported for all entries that follow.
- testedTarget: biotinylated recombinant human CLL-1 extracellular domain protein, isoform with glutamine at amino acid position 244 (human) (UniProt Q5QGZ9)
- Sequence (Q5QGZ9 65-265): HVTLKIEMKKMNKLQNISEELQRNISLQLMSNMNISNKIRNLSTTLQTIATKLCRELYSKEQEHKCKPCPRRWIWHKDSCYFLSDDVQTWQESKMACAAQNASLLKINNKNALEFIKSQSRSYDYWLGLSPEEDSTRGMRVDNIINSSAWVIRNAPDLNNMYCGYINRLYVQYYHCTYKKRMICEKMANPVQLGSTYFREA
- experimentNotes: BLItz, 1:1 model (Q244 per FIG. 12B)
# pKd is unitless: minus log10 of the molar concentration; print number only

- binder: "Anti-CLL-1 Binder Clone 11 (scFv, not shown: small tags and cut ends) scFv: QSVLTQPASVSGSPGQSITISCTGTSSDVGASNSVSWYQRHPGKPPKLMIYDVSNRPSGISNRFSGSKSGNTASLTISGLQSEDEADYYCSSYTGSSTFVVFGGGTQLIILGGGGSGGGGSGGGGSEVQLVESGGGVVQPGGSLRLSCAASGFTFSSYWMSWVRQAPGKGLEWVANIRQDGSEKYYVDSVKGRFTISRDNAKNSLYLQMNSLRAEDAAVYYCAREQDTAMVAFDYWGQGTLVTVSS"
  pKd: 7.39
- binder: "Anti-CLL-1 Binder Clone 12 (scFv, not shown: small tags and cut ends) scFv: DIQMTQSPSSLSASVGDRVTITCQASQDISNYLNWYQQKPGKAPKLLIYDASNLETGVPSRFSGSGSGTDFTLTISSPQPEDLATYYCQQANSFPFTFGQGTKVEIKGGGGSGGGGSGGGGSQVQLVQSGAEVKKPGSSVKVSCKASGYSFTRNDITWVRQANGRGLEWLGRLNPNNGDTVYAEVFQGRVAMTRDTSTDTAYMELASLKSDDTAVYFCARGFWSFDVWGQGTMVTVSS"
  pKd: 7.35

Next item in the queue.
Asked: Query (binder): Anti-CLL-1 Binder Clone 4 (scFv, not shown: small tags and cut ends) scFv: QSVVTQPPSVSAAPGQKVTISCSGSSPNIGKNYVSWYQQLPGTAPKLLIYDNNKRPSGIPDRFSGSKSGTSATLGITGLQTGDEADYYCGTWDSSLSGYVFGTGTKVTVLGGGGSGGGGSGGGGSQVQLVESGGGVVQPGRSLRLSCAASGFTFSSYGMHWVRQAPGKGLEWVAFISHDGSNKYYADSVKGRSTISRDNSKSTLFLQMNSLRDEDTAVYFCAREGQLTTSWDFFDYWGHGTLVTVSS ; field requested: pKd
Given back: 7.89
